Quick reference for melting point among some molecules

O=S(=O)(CF)c1cccc(Br)c1Cl
149 °C
COc1cc(C(=O)NS(=O)(=O)c2ccccc2C)ccc1CN1CCOc2ccc(NC(=O)CC3CCCC3)cc21
207 to 208 °C
CC(C)(C)c1cc(C=O)c(O)cc1Cl
38 to 39 °C
CCc1cc2c(=O)[nH]c(CO)nc2s1
202 °C
FC1=CC(c2cccnc2)=CC2CCC(=S)NC12 (stereo not given)
235 °C
O=C(Nc1ccc(C(F)(F)F)cc1)[C@H]1[C@H](c2ccccc2)C12CCCC2 (relative stereo)
171 to 173 °C
COc1ccc([N+](=O)[O-])c(C#N)c1CBr
137 to 138 °C
CC(C)c1cc2sccc2c2c3c([nH]c12)CCNC3
197 to 199 °C
CCOC(=O)CCc1cn(Cc2cccc(C(=O)Nc3cccnc3)c2)nc1-c1ccccc1
111 to 112 °C
CCCC(=O)c1c[nH]c2c(OC)cc(OC(=O)c3ccccc3)cc2c1=O
102 to 104 °C

Asked: Fill blank: measured melting point of the molecule CC(C)(C)OC(=O)NCc1ccc(CNC(=O)N2CCN(C(=O)OCc3ccccc3)CC2)cc1 is ____.
Given back: 128 °C

Asked: Recorded melting point for CC(=O)Nc1cccc(/C=C/C(=O)N2CC(CCl)c3c2cc(NC(=O)OCC2c4ccccc4-c4ccccc42)c2ccccc32)c1 (stereo not given) , please?
Given back: 208 to 209 °C

Asked: What value of melting point has been recorded for this entry: CC1(COc2nc3ccccc3o2)Cn2cc([N+](=O)[O-])nc2O1 (stereo not given)
Given back: 200 to 203 °C

Asked: Entry O=S1(=O)CCN2CCN[C@H](c3ccc(Oc4ccccc4)cc3)C2=N1 has what melting point?
Given back: 124 to 125 °C

Asked: Query: melting point; subject: CC1(C)CCC(C)(C)c2cc(-c3cc(-c4ccc(C(=O)O)cc4)ccc3-c3ccccc3O)ccc21
Given back: 161 to 163 °C

Asked: Endpoint output: melting point of CCCCCCCCCC(C)CNc1cccc(-c2ccnc3c(C(=O)c4cccs4)cnn23)c1 (stereo not given) . Value?
Given back: 108 to 110 °C

Asked: What does the record list as melting point for CCOC(=O)C1C(=O)NC(=O)CC1c1ccc(F)cc1 (stereo not given) ?
Given back: 97 to 99 °C
